cell viability values by entry
tested on: Caco-2; assay: cell viability relative to DMSO; higher = less toxic; conditions: 72 h; 10 nM
Just the number please, in %, no unit attached.

Examples with answers:
- substance smiles: "O=C(CC12CC3CC(CC(C3)C1)C2)Nc1cccc2nc(NCCNCCO)ccc12"
  unit abbrev: "%"
  cell viability: 93.1
- substance smiles: "CC1(C)S[C@@H]2[C@H](NC(=O)COc3ccccc3)C(=O)N2[C@H]1C(=O)O"
  unit abbrev: "%"
  cell viability: 95.6
- substance smiles: "CN1CCN(CCCN2c3ccccc3Sc3ccc(S(=O)(=O)N(C)C)cc32)CC1"
  unit abbrev: "%"
  cell viability: 93.3
- substance smiles: "Cc1cnc(Nc2ccc(OCCN3CCCC3)cc2)nc1Nc1cccc(S(=O)(=O)NC(C)(C)C)c1"
  unit abbrev: "%"
  cell viability: 97.1

Prompt: Supply recorded cell viability for `CC(C)Nc1nc2cc(Cl)c(Cl)cc2n1[C@H]1O[C@@H](CO)[C@H](O)[C@@H]1O` here.
Completion: 98.9

Prompt: Supply recorded cell viability for `O=C(O)c1cn(C2CC2)c2cc(N3CCNCC3)c(F)cc2c1=O` here.
Completion: 100

Prompt: Supply recorded cell viability for `FC(F)(F)c1ccccc1-n1ccnc1` here.
Completion: 104

Prompt: Supply recorded cell viability for `CC(C)(C(=O)O)c1ccc(C(=O)CCCN2CCC(OC(c3ccccc3)c3ccccc3)CC2)cc1` here.
Completion: 101
